test system: MDCK; test: Minimum inhibitory concentration required for antiviral activity to reduce influenza B virus (Singapore) induced cytopathicity in Madin-Darby canine kidney cells (MDCK); assay type: functional; conditions: Canis lupus familiaris
# MIC values compiled below
measurement-name: MIC

> print(dat)
                               input.smiles    obs.value
1  CCC/C=C\c1nc2c(N)ncnc2n1[C@H]1C[C@H](O)[C@@H](CO)O1  > 200 µg/mL
2  CCCCCC#Cc1nc2c(N)ncnc2n1[C@H]1C[C@H](O)[C@@H](CO)O1    100 µg/mL
3  CCCCCCCc1nc2c(N)ncnc2n1[C@H]1C[C@H](O)[C@@H](CO)O1  > 100 µg/mL
4  CCCCCc1nc2c(N)ncnc2n1[C@H]1C[C@H](O)[C@@H](CO)O1  > 100 µg/mL
5  CCCC#Cc1nc2c(N)ncnc2n1[C@H]1C[C@H](O)[C@@H](CO)O1  > 100 µg/mL
6  CCCc1nc2c(N)ncnc2n1[C@H]1C[C@H](O)[C@@H](CO)O1  > 200 µg/mL

====

Property: MIC; scope: individual compounds
test system: Vesicular stomatitis virus; experiment: Minimum inhibitory concentration required for antiviral activity to reduce Vesicular stomatitis virus (VSV) induced cytopathicity in human embryonic skin-muscle cells (ESM); assay type: functional
measurement-name: MIC

> print(dat)
                                   compound                         tgt    obs.value
1  O=c1[nH]c(=O)n([C@H]2C[C@H](O)[C@@H](CO)O2)cc1/C=C/Br [BRIVUDINE]  Vesicular stomatitis virus  > 400 µg/mL
2  CCc1nc2c(N)ncnc2n1[C@H]1C[C@H](O)[C@@H](CO)O1  Vesicular stomatitis virus  > 400 µg/mL
3  Nc1nc2c(ncn2COCCO)c(=O)[nH]1 [ACYCLOVIR]  Vesicular stomatitis virus  > 400 µg/mL

====

tested on: Vaccinia virus; assay: Minimum inhibitory concentration required for antiviral activity to reduce Vaccinia virus (VV) induced cytopathicity in human embryonic skin-muscle cells (ESM); format: functional; settings: Orthopoxvirus vaccinia
measurement-name: MIC (µg/mL)

> print(dat)
                               input.smiles             tgt  measurement.name  bound.operator  obs.value
1  C#Cc1nc2c(N)ncnc2n1[C@H]1C[C@H](O)[C@@H](CO)O1  Vaccinia virus               MIC               >          4
2  C/C=C\c1nc2c(N)ncnc2n1[C@H]1C[C@H](O)[C@@H](CO)O1  Vaccinia virus               MIC               >        100
3  CCCCCCCc1nc2c(N)ncnc2n1[C@H]1C[C@H](O)[C@@H](CO)O1  Vaccinia virus               MIC               =         20
4  CCCCCC#Cc1nc2c(N)ncnc2n1[C@H]1C[C@H](O)[C@@H](CO)O1  Vaccinia virus               MIC               =          7
5  CCC/C=C\c1nc2c(N)ncnc2n1[C@H]1C[C@H](O)[C@@H](CO)O1  Vaccinia virus               MIC               >        100
6  CCCC#Cc1nc2c(N)ncnc2n1[C@H]1C[C@H](O)[C@@H](CO)O1  Vaccinia virus               MIC               =        150

====

As shown below, each of these compounds has a reported MIC value.
test system: Vaccinia virus; assay: Minimum inhibitory concentration required for antiviral activity to reduce Vaccinia virus (VV) induced cytopathicity in human embryonic skin-muscle cells (ESM); assay type: functional; settings: Orthopoxvirus vaccinia
measurement-name: MIC

> print(dat)
                               input.smiles    obs.value
1  Nc1ncnc2c1ncn2[C@H]1C[C@H](O)[C@@H](CO)O1  > 400 µg/mL
2  CCc1nc2c(N)ncnc2n1[C@H]1C[C@H](O)[C@@H](CO)O1  > 400 µg/mL
3              Nc1nc2c(ncn2COCCO)c(=O)[nH]1  > 400 µg/mL

====

system: HEL; experiment: Minimum inhibitory concentration required for antiviral activity to reduce Varicella Zoster virus (VZV) (Oka) induced cytopathicity in human embryonic lung cells (HEL); format: functional
This listing pairs molecules with measured MIC.
measurement-name: MIC

> print(dat)
                                   molecule    obs.value
1  CCC/C=C\c1nc2c(N)ncnc2n1[C@H]1C[C@H](O)[C@@H](CO)O1   > 50 µg/mL
2  Nc1ncnc2c1ncn2[C@H]1C[C@H](O)[C@@H](CO)O1 [DEOXYADENOSINE]  > 100 µg/mL
3  CCc1nc2c(N)ncnc2n1[C@H]1C[C@H](O)[C@@H](CO)O1  > 100 µg/mL
4  C/C=C\c1nc2c(N)ncnc2n1[C@H]1C[C@H](O)[C@@H](CO)O1   > 50 µg/mL
